# assay-details: Pharmacokinetic parameters in-vivo (IV, IP, PO)
# condition-info: ip, 3 mg/kg, read-out: Oral bioavailability (F)

{"columns": ["test-smiles", "bioavailability, %"],
 "data": [
  ["O=C(O)c1sc2cscc2c1F", 98],
  ["O=C(O)c1cc2c(F)c(F)sc2s1", 136]
]}

----------
# assay-details: Pharmacokinetic parameters in-vivo (IV, IP, PO)
# condition-info: iv, 1 mg/kg, read-out: Volume of distribution (Vd)

{"columns": ["test-smiles", "Vd / L/kg"],
 "data": [
  ["O=C(O)c1cc2c(F)c(F)sc2s1", 0.16],
  ["O=C(O)c1sc2cscc2c1F", 0.15]
]}

----------
Below, each entry is listed with its recorded IC50.
# measurement-target: BDK (MBP-BDK)
experimental-endpoint: IC50 (µM)

{"columns": ["compound", "measurement-target", "measured"],
 "data": [
  ["O=C(O)c1sc2cscc2c1F [RMO-1154]", "BDK (MBP-BDK)", 0.56],
  ["O=C(O)c1sc2sccc2c1F [RMO-1153]", "BDK (MBP-BDK)", 0.49],
  ["O=C(O)c1cc2cc(F)sc2s1 [RMO-1153B]", "BDK (MBP-BDK)", 0.61],
  ["O=C(O)c1sc2sc(F)cc2c1F [RMO-801]", "BDK (MBP-BDK)", 0.47]
]}
